test: Cyclic voltammetry of isoindigos in DMF (half-wave redox potentials under N2 or CO2); assay type: physicochemical; conditions: vs. Fc^+/Fc; 2.5 mM in DMF, 0.1 M NBu4PF6, CO2, 298 K
PARAMETER: E1/2 in CO2 (first or single) (V)
Give the value, in units of V, as a plain number.

Previously resolved entries follow.
O=C1Nc2cc(Br)ccc2/C1=C1\C(=O)Nc2cc(Br)ccc21 ... −1.12
COC(=O)c1ccc2c(c1)NC(=O)/C2=C1/C(=O)Nc2cc(C(=O)OC)ccc21 [66DMCIId, Dimethyl isoindigo-6,6′-dicarboxylate] ... −0.91
COC(=O)CNC(=O)c1ccc2c(c1)NC(=O)/C2=C1/C(=O)Nc2ccccc21 [6AIIdGly, Methyl isoindigo-6-carbonylglycinate] ... −1.08
COC(=O)C(CO)NC(=O)c1ccc2c(c1)NC(=O)/C2=C1/C(=O)Nc2cc(Br)ccc21 (stereo not shown) ... −1.11
O=C1Nc2ccc(F)cc2/C1=C1\C(=O)Nc2ccc(F)cc21 ... −1.13
COC(=O)c1ccc2c(c1)NC(=O)/C2=C1/C(=O)Nc2ccccc21 [6MCIId, Methyl isoindigo-6-carboxylate] ... −1.09
O=C1Nc2cc(F)c(F)cc2/C1=C1\C(=O)Nc2cc(F)c(F)cc21 ... −1.1
O=C1Nc2ccccc2/C1=C1\C(=O)Nc2ccc(Br)cc21 ... −1.11
O=C1Nc2ccccc2/C1=C1\C(=O)Nc2cc(Br)ccc21 ... −1.14
COC(=O)c1ccc2c(c1)NC(=O)/C2=C1/C(=O)Nc2cc(Br)ccc21 [6B6MCIId, Methyl 6-bromoisoindigo-6′-carboxylate] ... −1.05

Task item: What value of measured E1/2 in CO2 (first or single) is listed for `O=C1Nc2ccc(Br)cc2/C1=C1\C(=O)Nc2ccc(Br)cc21` ?
Reply: −1.09

* * *

test: CO2 binding constant (KCO2) calculated from the shift of the second reduction peak in CV; details: DMF, 298 K
Examples of compounds with documented logK[CO2] follow.

Previously resolved entries follow.
CCCCC(CC)CN1C(=O)/C(=C2/C(=O)N(CC(CC)CCCC)c3ccccc32)c2ccccc21 (centres unmarked) ... 6.62
COC(=O)C(CO)NC(=O)c1ccc2c(c1)NC(=O)/C2=C1/C(=O)Nc2cc(Br)ccc21 (centres unmarked) ... 8.73
COC(=O)C(CO)NC(=O)c1ccc2c(c1)NC(=O)/C2=C1/C(=O)Nc2ccccc21 (centres unmarked) [6AIIdSer, Methyl isoindigo-6-carbonylserinate] ... 8.41
O=C1Nc2ccccc2/C1=C1\C(=O)Nc2ccc([N+](=O)[O-])cc21 ... 8.88
CCCN1C(=O)/C(=C2/C(=O)N(CCC)c3cc(Br)ccc32)c2ccc(Br)cc21 ... 4.48

Task item: What value of measured logK[CO2] is listed for `COc1ccc2c(c1)/C(=C1\C(=O)Nc3ccc(OC)cc31)C(=O)N2` ?
Reply: 9.05

Task item: What value of measured logK[CO2] is listed for `O=C1Nc2ccccc2/C1=C1\C(=O)Nc2cc(Br)ccc21` ?
Reply: 9.8

Task item: What value of measured logK[CO2] is listed for `O=C1Nc2ccc(F)cc2/C1=C1\C(=O)Nc2ccc(F)cc21` ?
Reply: 9.96

Task item: What value of measured logK[CO2] is listed for `O=C1Nc2ccccc2/C1=C1\C(=O)Nc2ccc(Br)cc21` ?
Reply: 9.05

Task item: What value of measured logK[CO2] is listed for `O=C1Nc2cc(Br)ccc2/C1=C1\C(=O)Nc2cc(Br)ccc21` ?
Reply: 9.59

Task item: What value of measured logK[CO2] is listed for `O=C1Nc2cc(F)c(F)cc2/C1=C1\C(=O)Nc2cc(F)c(F)cc21` ?
Reply: 10.3

Task item: What value of measured logK[CO2] is listed for `COc1ccc2c(c1)/C(=C1\C(=O)Nc3ccc([N+](=O)[O-])cc31)C(=O)N2` ?
Reply: 8.65

Task item: What value of measured logK[CO2] is listed for `O=C1Nc2ccccc2/C1=C1\C(=O)Nc2ccccc21` ?
Reply: 9.34

Task item: What value of measured logK[CO2] is listed for COC(=O)CNC(=O)c1ccc2c(c1)NC(=O)/C2=C1/C(=O)Nc2ccccc21 [6AIIdGly, Methyl isoindigo-6-carbonylglycinate] ?
Reply: 8.63

* * *

Examples of compounds with documented E1/2 in N2 (first) follow.
Assay: Cyclic voltammetry of isoindigos in DMF (half-wave redox potentials under N2 or CO2)
Type: physicochemical
Settings: first half-wave potential vs. Fc^+/Fc; 2.5 mM in DMF, 0.1 M NBu4PF6, N2, 298 K
Procedure: Electrochemical measurements were conducted using a BioLogic VSP potentiostat (BioLogic Science Instruments). For the cyclic voltammetry measurements, glassy carbon (Ø=3 mm) was used as the working electrode, platinum wire was used as the counter electrode, silver wire was used as the pseudo-reference electrode and ferrocene was used as the internal reference. […]

COC(=O)CNC(=O)c1ccc2c(c1)NC(=O)/C2=C1/C(=O)Nc2ccccc21 [6AIIdGly, Methyl isoindigo-6-carbonylglycinate] ... −1.17, V
COC(=O)C(CO)NC(=O)c1ccc2c(c1)NC(=O)/C2=C1/C(=O)Nc2cc(Br)ccc21 (stereo not drawn) [6B6AIIdSer] ... −1.11, V
COC(=O)c1ccc2c(c1)NC(=O)/C2=C1/C(=O)Nc2ccccc21 [6MCIId, Methyl isoindigo-6-carboxylate] ... −1.12, V
O=C1Nc2ccccc2/C1=C1\C(=O)Nc2cc(Br)ccc21 [6BIId, 6-Bromoisoindigo] ... −1.21, V
O=C1Nc2ccccc2/C1=C1\C(=O)Nc2cc(C(=O)O)ccc21 [6CIId, Isoindigo-6-carboxylic Acid] ... −1.09, V

Task item: What value of measured E1/2 in N2 (first) is listed for O=C1Nc2ccc(F)cc2/C1=C1\C(=O)Nc2ccc(F)cc21 [55DFIId, 5,5′-Difluoroisoindigo] ?
Reply: −1.14, V

Task item: What value of measured E1/2 in N2 (first) is listed for CCCCC(CC)CN1C(=O)/C(=C2/C(=O)N(CC(CC)CCCC)c3ccccc32)c2ccccc21 (stereo not drawn) [NNDEHIId, N,N′-Di-(2-ethylhexyl)-isoindigo] ?
Reply: −1.23, V

Task item: What value of measured E1/2 in N2 (first) is listed for CCCN1C(=O)/C(=C2/C(=O)N(CCC)c3cc(Br)ccc32)c2ccc(Br)cc21 [NNDPr66DBIId, N,N′-Dipropyl-6,6′-dibromoisoindigo] ?
Reply: −1.07, V

Task item: What value of measured E1/2 in N2 (first) is listed for COC(=O)C(CO)NC(=O)c1ccc2c(c1)NC(=O)/C2=C1/C(=O)Nc2ccccc21 (stereo not drawn) [6AIIdSer, Methyl isoindigo-6-carbonylserinate] ?
Reply: −1.18, V

* * *

experiment: Cyclic voltammetry of isoindigos in DMF (half-wave redox potentials under N2 or CO2); format: physicochemical; settings: Table 1; first electron transfer, N2, DMF
Examples of molecules with documented E1/2 (IId/IId·−) in N2 follow.
Give the value, in units of V vs. Fc^+/Fc, as a plain number.

Previously resolved entries follow.
CCCN1C(=O)/C(=C2/C(=O)N(CCC)c3cc(Br)ccc32)c2ccc(Br)cc21 [NNDPr66DBIId, N,N′-Dipropyl-6,6′-dibromoisoindigo] ... −1.07
O=C1Nc2ccccc2/C1=C1\C(=O)Nc2ccccc21 [IId, Isoindigo] ... −1.29
COc1ccc2c(c1)/C(=C1\C(=O)Nc3ccc(OC)cc31)C(=O)N2 [55DMIId, 5,5′-Dimethoxylisoindigo] ... −1.29
O=C1Nc2ccc(Br)cc2/C1=C1\C(=O)Nc2ccc(Br)cc21 [55DBIId, 5,5′-Dibromoisoindigo] ... −1.09
O=C1Nc2cc(Br)ccc2/C1=C1\C(=O)Nc2cc(Br)ccc21 [66DBIId, 6,6′-Dibromoisoindigo] ... −1.14
COC(=O)c1ccc2c(c1)NC(=O)/C2=C1/C(=O)Nc2ccccc21 [6MCIId, Methyl isoindigo-6-carboxylate] ... −1.12

Task item: What value of measured E1/2 (IId/IId·−) in N2 is listed for O=C1Nc2ccccc2/C1=C1\C(=O)Nc2ccc(Br)cc21 [5BIId, 5-Bromoisoindigo] ?
Reply: −1.19

* * *

assay: Cyclic voltammetry of isoindigos in DMF (half-wave redox potentials under N2 or CO2); type: physicochemical; details: Table 5; vs. Fc^+/Fc
PARAMETER: Experimental 1st half-wave potential in N2 (V)
Give the value, in units of V, as a plain number.

Previously resolved entries follow.
O=C1Nc2ccccc2/C1=C1\C(=O)Nc2ccccc21 ... −1.29
O=C1Nc2ccc(Br)cc2/C1=C1\C(=O)Nc2ccc(Br)cc21 ... −1.09
O=C1Nc2cc(Br)ccc2/C1=C1\C(=O)Nc2cc(Br)ccc21 ... −1.14

Now, please, on to the next molecule.
Task item: What value of measured Experimental 1st half-wave potential in N2 is listed for `O=C1Nc2ccccc2/C1=C1\C(=O)Nc2ccc(Br)cc21` ?
Reply: −1.19
